This collection of values is drawn from PubChem BioAssay (NCATS).

assay-remarks: qHTS of pediatric cancer cell lines to identify multiple opportunities for drug repurposing: Primary screen for MG 63 (6-TG R) cells (AID 1347105); also: nearly all actives have a fitted effect of over 50% in size
condition-label: MG 63 (6-TG R) viability, CellTiter-Glo, 48 h; series mostly up to 46 µM
Method: Drug repurposing or repositioning has been offered as a strategy for drug development in oncology programs. This approach has special potential for childhood cancers and other rare or orphan diseases, where the expected return on new drug development has been a disincentive to pharmaceuticals. […] We employed a titration-based paradigm (quantitative high-throughput screening or qHTS), where all compounds were tested at multiple concentrations for their effect on cell viability. […]
Inconclusive results are not listed. The source made the active and inactive calls. Calls follow the shape of the dose curve; as a rule, active = well fitted cell-killing curve with a large enough effect; inconclusive = small, poorly fitted or top-dose-only effect; inactive = no such curve, though single readings can be large or run the other way.
Assign a class; possible classes are TRUE for active, FALSE for inactive

Solved entries:
>  <compound>
CC(=O)OC[C@@H]1O[C@@H](n2ccc(=O)[nH]c2=O)[C@H](OC(C)=O)[C@H]1OC(C)=O

>  <classification>
FALSE

$$$$
>  <compound>
CCCCC(=O)O[C@]1(C(=O)CO)[C@@H](C)C[C@H]2[C@@H]3CCC4=CC(=O)C=C[C@]4(C)[C@@]3(F)[C@@H](O)C[C@@]21C

>  <classification>
FALSE

$$$$
>  <compound>
CON=C(C(=O)N[C@@H]1C(=O)N2C(C(=O)O)=C(Cn3ccc(=N)n3CCO)CS[C@H]12)c1csc(N)n1

>  <classification>
FALSE

$$$$

Please indicate how the test categorized Nc1nc(=O)n([C@H]2CSC(CO)O2)cc1F (stereo not given in full) . FALSE

Would you kindly repeat that for CNC(=O)c1cccc(-c2ccc3c(N4CCOC[C@H]4C)nc(N4CCOC[C@H]4C)nc3n2)c1 ? TRUE

----------
System: CRL-7250
assay-remarks: Cytotoxic Profiling of Annotated Libraries Using Quantitative High-Throughput Screening (AID 1296008); also: % is scaled to controls: 0 for no effect and ±100 for the full control effect; nearly all actives have a fitted effect of over 60% in size
condition-label: Five cell lines viability, CellTiter-Glo ATP luminescence, 48-72 h; stronger effect = lower value
Results filed as inconclusive are left out.
Please respond with reported max response for every item in the list.
Answers are plain numbers, in %.

Examples with answers:
>  <molecule>
Cc1coc2c1C(=O)C(=O)c1c-2ccc2c(C)cccc12

>  <uom>
%

>  <max response>
-23.2

$$$$
>  <molecule>
NC(=O)c1ncn([C@@H]2O[C@H](CO)[C@@H](O)[C@@H]2O)c1O

>  <uom>
%

>  <max response>
-0.101

$$$$
>  <molecule>
C=C1CCC2[C@](C)(CO)C(O)CC[C@]2(C)C1CC=C1C(=O)OCC1O (some centres not stated)

>  <uom>
%

>  <max response>
-1.23

$$$$
>  <molecule>
CON=C(C(=O)N[C@@H]1C(=O)N2C(C(=O)O)=C(Cn3ccc(=N)n3CCO)CS[C@H]12)c1csc(N)n1

>  <uom>
%

>  <max response>
-8.38

$$$$

Please supply max response for each of the following items, keeping them in order.
1. C[C@@]12C[C@@]3(O)O[C@@H](O1)[C@]1(COC(=O)c4ccccc4)[C@@H]3C[C@@]12O[C@@H]1O[C@H](CO)[C@@H](O)[C@H](O)[C@@H]1O
2. O=C1c2cccc(O)c2C(=O)c2c(O)cc(CO)cc21
3. CC(=O)O[C@@]12CO[C@H]1C[C@H](O)[C@@]1(C)C(=O)[C@H](O)C3=C(C)[C@@H](OC(=O)C(O)[C@@H](NC(=O)OC(C)(C)C)c4ccccc4)C[C@@](O)([C@@H](OC(=O)c4ccccc4)[C@@H]21)C3(C)C (some centres not stated)
4. C[C@]12C=CC(=O)N[C@@H]1CC[C@H]1[C@H]3CC[C@@H](C(=O)Nc4cc(C(F)(F)F)ccc4C(F)(F)F)[C@@]3(C)CC[C@@H]12
5. CC1(C)[C@H](O[C@H]2O[C@H](C(=O)O)[C@@H](O)[C@H](O)[C@H]2O[C@@H]2O[C@H](C(=O)O)[C@@H](O)[C@H](O)[C@H]2O)CC[C@@]2(C)[C@H]1CC[C@]1(C)[C@H]2C(=O)C=C2[C@H]3C[C@@](C)(C(=O)O)CC[C@]3(C)CC[C@]21C
6. C[C@@H]1CC[C@@]2(OC1)OC1CC3C4CC=C5CC(O)CCC5(C)C4CCC3(C)C1[C@@H]2C (some centres not stated)
7. C[C@H]1O[C@H](O[C@H]2[C@H](O)[C@@H](O)[C@@H](O[C@H]3[C@H](O)[C@@H](O)C(O)O[C@H]3CO)O[C@H]2CO)[C@H](O)[C@@H](O)[C@H]1N[C@H]1C=C(CO)[C@@H](O)[C@H](O)[C@@H]1O (some centres not stated)

1: 4.21; 2: -9.37; 3: -64.7; 4: -6.18; 5: -14.3; 6: -6.42; 7: 1.59

Please look at the items below and tell me max response for each one, in order.
1. CC1(C)O[C@@H]2C[C@H]3[C@@H]4CCC5=CC(=O)C=C[C@]5(C)[C@@H]4[C@@H](O)C[C@]3(C)[C@]2(C(=O)CO)O1
2. CC(=CC(=O)Nc1ccccc1C(=O)O)c1ccc2ccccc2c1
3. N#Cc1ccc(COC[C@H]2O[C@@H](n3c(NCc4ccc(Cl)c(Cl)c4)nc4c(N)ncnc43)[C@@H](O)[C@@H]2O)cc1
4. CCC[C@H]1C[C@H](C(=O)N[C@@H]([C@@H]2O[C@@H](SC)[C@@H](O)[C@@H](O)[C@@H]2O)[C@H](C)Cl)N(C)C1

1. -21.1
2. -3.34
3. -5.8
4. -6.31
